ASSAY_TEXT: amyloid nucleation score (Sup35N fusion, yeast selection) (log enrichment); library NNK3; higher = more nucleation; inactive = no reads after selection;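 also: zero at mode of non-aggregating sequences after 7 days selection at 30°C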
PROPERTY_LABEL: amyloid nucleation score

>  <SUBSTANCE>
VDNSFEYIWDLFTVDHMSGA

>  <TEST_RESULT>
inactive

$$$$
>  <SUBSTANCE>
KRVCCCKNSSSCE

>  <TEST_RESULT>
inactive

$$$$
>  <SUBSTANCE>
SRIAFKVDFASCRARMCGVE

>  <TEST_RESULT>
inactive

$$$$
>  <SUBSTANCE>
LFMTRSFILYFTYPFRYGVV

>  <TEST_RESULT>
inactive

$$$$
>  <SUBSTANCE>
YGWIDRS

>  <TEST_RESULT>
inactive

$$$$
>  <SUBSTANCE>
HFSLSG

>  <TEST_RESULT>
inactive

$$$$
>  <SUBSTANCE>
FVCLLCPMYYVHSTMWMSAR

>  <TEST_RESULT>
2.01

$$$$
>  <SUBSTANCE>
TRNLPTN

>  <TEST_RESULT>
inactive

$$$$
>  <SUBSTANCE>
VAFMIHYMKLPKYSHPWVHN

>  <TEST_RESULT>
0.041

$$$$
>  <SUBSTANCE>
GTYSTVKFCLCMWVILAPSS

>  <TEST_RESULT>
inactive

$$$$
>  <SUBSTANCE>
REITSWLDIDFL

>  <TEST_RESULT>
inactive

$$$$
>  <SUBSTANCE>
FQESVIWKVYRNNNYRSLTV

>  <TEST_RESULT>
inactive

$$$$
>  <SUBSTANCE>
TIGFFSVVNYVWFSAYNWQS

>  <TEST_RESULT>
-0.453

$$$$
>  <SUBSTANCE>
SLSPAGSGSFFGKGFWMMLA

>  <TEST_RESULT>
inactive

$$$$
>  <SUBSTANCE>
LCDGCKNMFLLPLY

>  <TEST_RESULT>
inactive

$$$$
>  <SUBSTANCE>
SSSSNANGFNRHYLSVRFGE

>  <TEST_RESULT>
inactive

$$$$

###

ASSAY_TEXT: amyloid nucleation score (Sup35N fusion, yeast selection) (log enrichment); library NNK2; higher = more nucleation; inactive = no reads after selection
PROPERTY_LABEL: amyloid nucleation score

>  <SUBSTANCE>
YQPRAYGKSPSIQFGQIVKQ

>  <TEST_RESULT>
0.106

$$$$
>  <SUBSTANCE>
IFSNIFSFV

>  <TEST_RESULT>
3.55

$$$$
>  <SUBSTANCE>
KAVSLPLVGGLC

>  <TEST_RESULT>
-0.684

$$$$
>  <SUBSTANCE>
ALISSPANCAISWITCILVV

>  <TEST_RESULT>
5.95

$$$$
>  <SUBSTANCE>
HGLTYIGIKCTYIKRVTWVR

>  <TEST_RESULT>
0.389

$$$$
>  <SUBSTANCE>
QFEVNNLTPIGEEGGPKDCP

>  <TEST_RESULT>
0.759

$$$$
>  <SUBSTANCE>
NYLQCWVFGRESMSLYKIWL

>  <TEST_RESULT>
-0.081

$$$$
>  <SUBSTANCE>
VGNIGPT

>  <TEST_RESULT>
0.338

$$$$
>  <SUBSTANCE>
AILNAVGCNWGTRCDGLSVQ

>  <TEST_RESULT>
-0.213

$$$$
>  <SUBSTANCE>
IYDLSCAKARLYVASHSLTL

>  <TEST_RESULT>
0.418

$$$$
>  <SUBSTANCE>
GNMKCQVTLILMSTSDIREL

>  <TEST_RESULT>
7.04

$$$$
>  <SUBSTANCE>
CFTNIYRKGMMCYGPFTAMT

>  <TEST_RESULT>
-0.214

$$$$
>  <SUBSTANCE>
LSNAYRTGFPLICSLNNHRH

>  <TEST_RESULT>
1.03

$$$$
>  <SUBSTANCE>
VSMGNGARH

>  <TEST_RESULT>
0.194

$$$$
>  <SUBSTANCE>
KLDWSNRLCSLNFECSCQLL

>  <TEST_RESULT>
3.78

$$$$
>  <SUBSTANCE>
IIGDTICVVIIKWNLKNYRS

>  <TEST_RESULT>
3.67

$$$$
>  <SUBSTANCE>
YALVVLIWT

>  <TEST_RESULT>
-1.43

$$$$
>  <SUBSTANCE>
LVQCLLYSLWCQALSQPMYV

>  <TEST_RESULT>
-0.753

$$$$
>  <SUBSTANCE>
IISSGSIDCVYWTWFLRY

>  <TEST_RESULT>
-0.396

$$$$
>  <SUBSTANCE>
YCFFKVKTDLKTMCELGSTA

>  <TEST_RESULT>
-0.122

$$$$
>  <SUBSTANCE>
TMRYMVQMLRFEQSGLGQWV

>  <TEST_RESULT>
4.19

$$$$
>  <SUBSTANCE>
FCKRKVTCVVY

>  <TEST_RESULT>
-0.538

$$$$
>  <SUBSTANCE>
LCACIELSNKMLLTFNSNVK

>  <TEST_RESULT>
-0.517

$$$$

###

ASSAY_TEXT: amyloid nucleation score (Sup35N fusion, yeast selection) (log enrichment); library NNK2; higher = more nucleation; inactive = no reads after selection
Entries and their amyloid nucleation score
PROPERTY_LABEL: amyloid nucleation score

>  <SUBSTANCE>
PDWLCEVKRIYELIGYMALI

>  <TEST_RESULT>
0.41

$$$$
>  <SUBSTANCE>
CFVVRE

>  <TEST_RESULT>
0.404

$$$$
>  <SUBSTANCE>
ISVKFNEEACKFYDLCN

>  <TEST_RESULT>
-0.294

$$$$
>  <SUBSTANCE>
YDKDFCDRRTEPKKFVLRHA

>  <TEST_RESULT>
0.092

$$$$
>  <SUBSTANCE>
WASWRSYSMWLDLLCFRSRG

>  <TEST_RESULT>
0.155

$$$$
>  <SUBSTANCE>
RFYRIDAKVAYQWAYQF

>  <TEST_RESULT>
3.94

$$$$
>  <SUBSTANCE>
HRSNFVVKLAASGSFTTGCR

>  <TEST_RESULT>
0.376

$$$$
>  <SUBSTANCE>
NCPSPLVWDCVLVVGDPVAC

>  <TEST_RESULT>
0.217

$$$$
>  <SUBSTANCE>
ENSFLVRKTSH

>  <TEST_RESULT>
-0.262

$$$$

###

ASSAY_TEXT: amyloid nucleation score (Sup35N fusion, yeast selection) (log enrichment); library NNK3; higher = more nucleation; inactive = no reads after selection

>  <BIOSEQUENCE>
NFWNWLHNPWAPM

>  <amyloid nucleation score>
inactive

$$$$
>  <BIOSEQUENCE>
SFRSNVGFEVFLIATELRFC

>  <amyloid nucleation score>
inactive

$$$$
>  <BIOSEQUENCE>
LFKGGDSICYSHWSVRSSRK

>  <amyloid nucleation score>
1.09

$$$$

###

ASSAY_TEXT: amyloid nucleation score (Sup35N fusion, yeast selection) (log enrichment); library NNK1; higher = more nucleation; inactive = no reads after selection
PROPERTY_LABEL: amyloid nucleation score

>  <SUBSTANCE>
SWCPSQEWFMRYVFSTMCRT

>  <TEST_RESULT>
0.302

$$$$
>  <SUBSTANCE>
LSYRSSRFGVS

>  <TEST_RESULT>
0.3

$$$$
>  <SUBSTANCE>
YVCDKFYGNAQCF

>  <TEST_RESULT>
0.644

$$$$
>  <SUBSTANCE>
RLNVQLAGSVGVVWFICNWA

>  <TEST_RESULT>
5.98

$$$$
>  <SUBSTANCE>
YMNIVDVLAWGDRWVLLVWK

>  <TEST_RESULT>
0.425

$$$$
>  <SUBSTANCE>
SVFQVCFWFKYKRR

>  <TEST_RESULT>
0.201

$$$$
>  <SUBSTANCE>
WCWLCVKRR

>  <TEST_RESULT>
-0.108

$$$$
>  <SUBSTANCE>
RSICWKSFRRIFFDRW

>  <TEST_RESULT>
0.19

$$$$
>  <SUBSTANCE>
GNWAVGSIRDSCICGYIELR

>  <TEST_RESULT>
6.92

$$$$
>  <SUBSTANCE>
SMVTQLRSDNLGHWANSESR

>  <TEST_RESULT>
0.108

$$$$
>  <SUBSTANCE>
VYMMGGTLLRPYAILSYLDP

>  <TEST_RESULT>
0.465

$$$$
>  <SUBSTANCE>
SNQAHSMLISTIIMILGCYC

>  <TEST_RESULT>
0.419

$$$$
>  <SUBSTANCE>
SEVQAPHIRCINIRALYLRN

>  <TEST_RESULT>
2.08

$$$$
>  <SUBSTANCE>
LMFGLAMVNENPRGLSELRR

>  <TEST_RESULT>
0.065

$$$$
>  <SUBSTANCE>
YQVPKKVAATIGTAWARKRA

>  <TEST_RESULT>
0.279

$$$$
>  <SUBSTANCE>
FNYFVLFSLSFSTVFSFNDT

>  <TEST_RESULT>
3.37

$$$$
>  <SUBSTANCE>
YYLIMP

>  <TEST_RESULT>
0.322

$$$$
>  <SUBSTANCE>
YVSIYGQWVSSSCWTRRAYN

>  <TEST_RESULT>
0.415

$$$$
>  <SUBSTANCE>
FHASATRTFIVFCIC

>  <TEST_RESULT>
0.556

$$$$
>  <SUBSTANCE>
RRIGIGYGLLCRAWAYLYVL

>  <TEST_RESULT>
-0.477

$$$$
>  <SUBSTANCE>
SCGVLVSLFLYPKLNFGFYL

>  <TEST_RESULT>
0.419

$$$$
>  <SUBSTANCE>
SLFRVDYIDRFLSQFVEYNG

>  <TEST_RESULT>
0.333

$$$$
>  <SUBSTANCE>
RYCYRGHMFLFQTSLFKCSS

>  <TEST_RESULT>
-0.354

$$$$
>  <SUBSTANCE>
IGAGPRL

>  <TEST_RESULT>
-0.623

$$$$
>  <SUBSTANCE>
GTMDMSQGYSQVCLDFIVHG

>  <TEST_RESULT>
-0.626

$$$$
>  <SUBSTANCE>
YVSTIN

>  <TEST_RESULT>
0.629

$$$$
>  <SUBSTANCE>
LSCPRNYWRSSLLVFMDGSQ

>  <TEST_RESULT>
0.319

$$$$
>  <SUBSTANCE>
KVQYLFCNYLIKSYMMVQCN

>  <TEST_RESULT>
0.477

$$$$
>  <SUBSTANCE>
RVSCFRTRDRIFGVFTQSQV

>  <TEST_RESULT>
-0.314

$$$$
>  <SUBSTANCE>
FWIEGP

>  <TEST_RESULT>
0.564

$$$$
>  <SUBSTANCE>
WTVSSVIGNGWQCNRSYG

>  <TEST_RESULT>
0.247

$$$$
>  <SUBSTANCE>
IVWVDLNRIGSCAGLGINYY

>  <TEST_RESULT>
0.18

$$$$
>  <SUBSTANCE>
WHQEWRKWADKGLAIRT

>  <TEST_RESULT>
0.836

$$$$
>  <SUBSTANCE>
YLWLYVLSRTWVFNKHPSPI

>  <TEST_RESULT>
-0.543

$$$$
>  <SUBSTANCE>
DVFGLLSIYYR

>  <TEST_RESULT>
1.1

$$$$
>  <SUBSTANCE>
FRLLRSK

>  <TEST_RESULT>
0.644

$$$$
>  <SUBSTANCE>
YIKAGLFGCYMVAGGAYNPV

>  <TEST_RESULT>
1.58

$$$$
>  <SUBSTANCE>
LSEYVKEAVVDPRLTFARIA

>  <TEST_RESULT>
-0.764

$$$$
>  <SUBSTANCE>
LFHRIV

>  <TEST_RESULT>
-0.353

$$$$
>  <SUBSTANCE>
DFWSYDDVVFGRC

>  <TEST_RESULT>
1.3

$$$$
>  <SUBSTANCE>
RGYSGTTTHAATATKLS

>  <TEST_RESULT>
1.56

$$$$
